test: Human liver microsome (HLM) metabolic stability assay; format: in vitro ADME; conditions: human liver microsomes, 1 uM compound, 37° C., 60 min; % hepatic blood flow
OBSERVABLE: HLM (% Qh)

1) CC[C@@H](C)n1c(=O)c(NCc2ccc(S(N)(=O)=O)cn2)nc2c(C)nc(-c3c(C)ncnc3C3CC3)nc21	34
2) CC[C@@H](C)n1c(=O)c(NCC2CCN(S(=O)(=O)CC)CC2)nc2c(C)nc(-c3c(C)ncnc3C3CC3)nc21	69
3) CC[C@@H](C)n1c(=O)c(NCc2ccc(S(=N)(=O)CC)cc2)nc2c(C)nc(-c3c(OC)ncnc3C3CC3)nc21 (single isomer, unassigned) [Example 29b]	48
4) CC[C@H](C)n1c(=O)c(NCc2ccc(S(C)(=N)=O)cc2)nc2c(C)nc(-c3c(C)ncnc3C3CC3)nc21 (stereo partly drawn)	33

* * *

molecular target: RORγ (Homo sapiens, UniProt P51449); assay: RORγ Reporter Gene Assay (RGA), luciferase transactivation in transiently transfected HEK 293 cells; conditions: HEK 293 cells cotransfected with pGL4.3 luc2P/GAL4UAS and pBIND Gal4DBD hRORC LBD; 20-24 h incubation
Sequence (P51449 269-508 limits assumed): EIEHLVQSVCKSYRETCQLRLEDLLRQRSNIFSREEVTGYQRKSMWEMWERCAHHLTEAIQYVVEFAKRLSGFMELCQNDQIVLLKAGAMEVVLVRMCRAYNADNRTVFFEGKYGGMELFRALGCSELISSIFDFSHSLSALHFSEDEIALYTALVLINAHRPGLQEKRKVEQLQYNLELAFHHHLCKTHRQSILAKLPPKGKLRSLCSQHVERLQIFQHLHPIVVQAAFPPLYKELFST
OBSERVABLE: IC50 (µM)

1) CC[C@H](C)n1c(=O)c(NCc2ncc(S(=O)(=O)CC)cn2)nc2c(C)nc(-c3c(OC)ncnc3C3CC3)nc21	0.15
2) Cc1ncnc(C2CC2)c1-c1nc(C)c2nc(NCc3ccc(S(N)(=O)=O)nc3)c(=O)n([C@@H](C)C(F)(F)F)c2n1	1.1
3) CC[C@@H](C)n1c(=O)c(NCc2ccc(S(=O)(=O)CC)cn2)nc2c(CO)nc(-c3c(C)ncnc3C3CC3)nc21	0.23
4) CCS(=O)(=O)c1ccc(CNc2nc3c(C)nc(-c4c(C)ncnc4C4CC4)nc3n([C@@H](C)C(F)(F)F)c2=O)nc1	0.13

* * *

Collected pIC50 values appear next to each entry.
target: UniProt P51449; assay: RORγ Reporter Gene Assay (RGA), luciferase transactivation in transiently transfected HEK 293 cells; settings: HEK 293 cells cotransfected with pGL4.3 luc2P/GAL4UAS and pBIND Gal4DBD hRORC LBD; 20-24 h incubation
pIC50: −log10 of the molar value.
OBSERVABLE: pIC50

1) CCS(=O)(=O)c1ccc(CNc2nc3c(C)nc(-c4c(C)ncnc4C4CC4)nc3n([C@@H](C)CF)c2=O)cn1	5.57
2) COc1ncnc(C2CC2)c1-c1nc(C)c2nc(NCc3ccc(S(C)(=N)=O)cc3)c(=O)n([C@@H](C)C(F)(F)F)c2n1 (single isomer, unassigned) [Example 99a]	6.64
3) CC[C@@H](C)n1c(=O)c(NCc2ccc(S(=O)(=O)CC)cn2)nc2c(C)nc(-c3c(OC)ncnc3C3CC3)nc21	7.14
4) Cc1ncnc(C2CC2)c1-c1nc(C)c2nc(NCc3ccc(S(C)(=O)=O)nc3)c(=O)n([C@@H](C)C(F)(F)F)c2n1	6.76
5) CC[C@@H](C)n1c(=O)c(NCc2ncc(S(C)(=O)=O)cn2)nc2c(C)nc(-c3c(OC)ncnc3C3CC3)nc21	5.96
6) COc1ncnc(C2CC2)c1-c1nc(C)c2nc(NCc3ccc(S(N)(=O)=O)cn3)c(=O)n(CC(C)C)c2n1	5.89
7) COc1ncnc(C2CC2)c1-c1nc(C)c2nc(NCc3ccc(S(N)(=O)=O)nc3)c(=O)n([C@@H](C)C(F)(F)F)c2n1	6.49
8) CC[C@@H](C)n1c(=O)c(NCc2ccc(S(=O)(=O)CC)cn2)nc2c(C)nc(-c3c(C)ncnc3C3CC3)nc21	6.87
9) CC[C@@H](C)n1c(=O)c(NCc2ccc(S(C)(=O)=O)cn2)nc2c(C)nc(-c3c(C)ncnc3C3CC3)nc21	6.81
10) CC[C@H](C)n1c(=O)c(NCc2ccc(S(C)(=O)=O)cn2)nc2c(C)nc(-c3c(OC)ncnc3C3CC3)nc21	7.00
11) CC[C@H](C)n1c(=O)c(NCc2ccc(S(C)(=O)=O)nc2)nc2c(C)nc(-c3c(C)ncnc3C3CC3)nc21	6.85
12) Cc1ncnc(C2CC2)c1-c1nc(C)c2nc(NCc3ccc(S(C)(=O)=O)cn3)c(=O)n([C@@H](C#N)C(C)C)c2n1	6.07
13) CC[C@H](C)n1c(=O)c(NCc2ccc(S(C)(=O)=O)nc2)nc2c(C)nc(-c3c(OC)ncnc3C3CC3)nc21	6.87
14) COc1ncnc(C2CC2)c1-c1nc(C)c2nc(NCc3ccc(S(C)(=O)=O)cn3)c(=O)n([C@@H](C)C(F)(F)F)c2n1	6.89
15) Cc1ncnc(C2CC2)c1-c1nc(C)c2nc(NCc3cnc(S(C)(=O)=O)cn3)c(=O)n([C@@H](C)C(F)(F)F)c2n1	6.34
16) CCS(=O)(=O)c1cnc(CNc2nc3c(C)nc(-c4c(C)ncnc4C4CC4)nc3n([C@@H](C)C(F)F)c2=O)nc1	6.69
17) CCS(=O)(=O)c1ccc(CNc2nc3c(C)nc(-c4c(OC)ncnc4C4CC4)nc3n([C@@H](C)C3CC3)c2=O)cn1	7.19
18) CC[C@@H](C)n1c(=O)c(NCc2ccc(S(C)(=O)=O)nc2)nc2c(C)nc(-c3c(C)ncnc3C3CC3)nc21	6.69
19) CCS(=O)(=O)c1ccc(CNc2nc3c(C)nc(-c4c(OC)ncnc4C4CC4)nc3n([C@@H](C)C3CC3)c2=O)nc1	7.19
20) CC[C@@H](C)n1c(=O)c(NCC2CCN(S(C)(=O)=O)CC2)nc2c(C)nc(-c3c(C)ncnc3C3CC3)nc21	7.01
21) CC[C@H](C)n1c(=O)c(NCc2ccc(S(=O)(=O)CC)nc2)nc2c(C)nc(-c3c(OC)ncnc3C3CC3)nc21	7.00
22) CCS(=N)(=O)c1ccc(CNc2nc3c(C)nc(-c4c(C)ncnc4C4CC4)nc3n([C@@H](C)C(F)(F)F)c2=O)nc1 (single isomer, unassigned) [Example 102b]	6.19
23) CC[C@H](C)n1c(=O)c(NCc2ccc(S(C)(=O)=O)cn2)nc2c(C)nc(-c3c(C)ncnc3C3CC3)nc21	6.94
24) CCS(=N)(=O)c1ccc(CNc2nc3c(C)nc(-c4c(C)ncnc4C4CC4)nc3n([C@@H](C)C3CC3)c2=O)cc1 (single isomer, unassigned) [Example 36a]	6.59
25) COc1ncnc(C2CC2)c1-c1nc(C)c2nc(NCc3ccc(S(C)(=N)=O)cn3)c(=O)n([C@@H](C)C(F)(F)F)c2n1 (single isomer, unassigned) [Example 105a]	6.05
